Tested on: KM12 colon
Assay: NCI tumour cell line growth inhibition, 48 h; in the data active means GI50 below about 0.43 µM; inactive means the rest
In this exercise, the only acceptable responses are 1 (active), 0 (inactive)

Solved entries:
1) CCCC/C(=C\C1=C(C)C(=O)C(OC)=C(OC)C1=O)C(=O)O    0
2) COc1cc2c(/C=N\N=C(N)N)c[nH]c2cc1C    0
3) Nc1cc2c(cc1Br)[nH]c(=O)c1ccccc12    0
4) Nc1cc(Br)c(-c2nnc(CCC(=O)c3nc4ccccc4[nH]3)o2)c(Br)c1    0
5) Cc1cn(-c2cc(C(=O)Nc3cccc(-n4ccc5c(NC(=O)c6ccccc6)nccc54)c3)cc(C(F)(F)F)c2)cn1    1

Which outcome was entered for the molecule CC1(C)CN=C(NN=C(/C=C/c2ccc(C(F)(F)F)cc2)/C=C/c2ccc(C(F)(F)F)cc2)NC1 in this test?
0

Test call, this molecule: CC(C)c1[nH]nc2c1N=C(c1ccccc1Cl)c1cc([N+](=O)[O-])ccc1N2
0

State the result this test recorded for O=C1CCCN1c1ccccc1I(=O)=O .
0

###

Below, each entry is listed with its recorded TGI.
Tested on: NCI/ADR-RES ovarian
Assay: NCI tumour cell line growth inhibition, 48 h
In your response, put the unit directly after the numeric value.

Answered examples (2):
1. CCN1CCCC(NCc2c3ccccc3c(CNC3CCCN(CC)C3)c3ccccc23)C1 (stereo not drawn)    79.7 µM
2. C(/C=C(\Nc1ccccc1)C12CC3CC(CC(C3)C1)C2)=Nc1ccccc1    42.5 µM

Short answer on NCI/ADR-RES ovarian for N=C(N)c1ccc(-c2ccc(-c3cccs3)s2)cc1 , TGI: 4.49 µM

###

Reported TGI values for the following compounds.
Test system: OVCAR-8 ovarian
Experiment: NCI tumour cell line growth inhibition, 48 h
Numbers only here, please. The scale is µM.

1) O=C(NCc1ccc(Cn2c(=O)sn(-c3ccccc3)c2=O)cc1)OCc1ccc2cccc(O)c2n1    3

Let's switch to this compound now.
Entry Cc1ccc([N+](=O)[O-])cc1N=NC(=O)NNc1cc([N+](=O)[O-])ccc1C ; TGI = 70

###

Test system: NCI-H460 lung
Experiment: NCI tumour cell line growth inhibition, 48 h
Where a SMILES comes first, the peptide text is derived from it. Bridges are numbered along the chain shown (N, C = ends). [ ]: non-standard residue; d: D form. The star is where a group is joined. ξ: configuration not given here. X26 = O=C(/C=C/C=C/C=C/C=C/C=C/C(=O)*)NC1=C(O)CCC1=O; NMeA = CN[C@@H](C)C(=O)O; ξF = NC(Cc1ccccc1)C(=O)O; ξA = CC(N)C(=O)O
readout name: TGI

1. CCC1=CC2CN3Cn4c(c(COCc5c6n(c7ccccc57)CN5CC7C=C(CC)C5C6(C(=O)OC)C7)c5ccccc54)C(C(=O)OC)(C2)C13    > 100 µM
2. C=Cc1ccc(C)[n+](C[Si](C)(C)O[Si](C)(C)C[n+]2cc(C=C)ccc2C)c1    > 100 µM
3. CC(=O)c1cccn1/C=C(\OC(=O)OC(C)(C)C)c1ccc[nH]1    > 100 µM
4. CC(C)(C)[Si](C)(C)OC1[C@@H](CNC(=O)NC(=O)CCl)O[C@@H](n2cnc3c(N)ncnc32)[C@H]1O[Si](C)(C)C(C)(C)C (some centres undefined)    3.21 µM

Next up:
Value of TGI reported for the compound CC1NC(=O)[C@H](C)N(C)C(=O)[C@@H]2CCCN2C(=O)[C@@H](NC(=O)C(Cc2ccccc2)NC(=O)/C=C/C=C/C=C/C=C/C=C/C(=O)NC2=C(O)CCC2=O)COC(=O)[C@@H]2CCCN2C1=O (some centres undefined) (X26-[ξF]SP[NMeA][ξA]P; ester 2-C) is > 100 µM
